tested on: Klebsiella pneumoniae; details: Concentration 32 ug.mL-1; ASSAY_TEST Inhibition of Bacterial Growth; detection method Absorption (OD600); MEDIA CAMHB; plate type 384well; NBS; CORNING #3640; time 18 hr
Description: Antibacterial activity against Klebsiella pneumoniae MDR ATCC 70063 (CO-ADD:GN_003); MIC in CAMBH media using NBS plates, by OD(600)
Measured potencies and affinities stand elsewhere.
experimentalEndpoint: Inhibition (%)
Answer with a number only, understood to be in %.

Worked examples, 5 compounds total:
compound	Inhibition / %
N#Cc1c(Cl)nc(NC2CCN(Cc3ccccc3)CC2)c(C#N)c1-c1ccccc1	0.34
CCOC(=O)C1=C(C)OC(N)=C(C#N)C1c1ccc(F)cc1 (centres undefined)	13.44
COC(=O)C(C#N)=Cc1ccccc1	12.71
CC1=C(CO)C(c2ccc(C#N)cc2)C(C#N)=C(N)O1 (centres undefined)	10.02
COC(=O)C1CCN(Cc2ccccc2)CC1	4.25

Next up:
Request: For the compound COc1ccc(-c2cc(-c3cc4c(C)cc(C)cc4nc3Cl)cc(=O)[nH]2)cc1 , report Inhibition.
Result: 4.51

Every entry's value here was drawn from ChEMBL document CHEMBL4513135.
